Just for reference, patent US8569378B2 is where these values come from.

- System: p27 protein
- measurement_notes: Quantification of p27 protein by ELISA (p27 protein-inducing activity, EC50)
- Format: cell-based, human
- condition_description: NCI-H460 cells, 48 hours, p27 sandwich ELISA; Table 1-1
Mark yes (1) only when EC50 stays strictly below 200 nM. Values equal to the cut-off are no (0).

Solved cases (5 shown):
[[record]]
molecule = "Cc1c(Cc2cccc(NS(=O)(=O)CC(=O)N(C)C)c2)c(=O)oc2cc(OC(=O)N(C)C)c(Cl)cc12 [Compound 1o-1-3-3]"
group = "yes (1)"

[[record]]
molecule = "CNS(=O)(=O)Nc1cccc(Cc2c(C)c3cc(Cl)c(OC(=O)N(C)C)cc3oc2=O)c1 [Compound 1j-1-3-2]"
group = "yes (1)"

[[record]]
molecule = "CNC(=O)CS(=O)(=O)Nc1cccc(Cc2c(C)c3cc(Cl)c(OC(=O)N(C)C)cc3oc2=O)c1 [Compound 1o-1-3-2]"
group = "no (0)"

[[record]]
molecule = "CNS(=O)(=O)Nc1cccc(Cc2c(C)c3cc(I)c(OC(=O)N(C)C)cc3oc2=O)c1 [Compound 1j-1-7-2]"
group = "yes (1)"

[[record]]
molecule = "Cc1c(Cc2cccc(NS(N)(=O)=O)c2F)c(=O)oc2cc(OC(=O)N(C)C)ccc12 [Compound 1j-1-4-1]"
group = "yes (1)"


Is EC50 strictly under 200 nM for the entry CNS(=O)(=O)Nc1cccc(Cc2c(C)c3cc(F)c(OC(=O)N(C)C)cc3oc2=O)c1F [Compound 1j-1-5-2] ?
no (0)

Is EC50 of Cc1c(Cc2cccc(NS(=O)(=O)NCCC#N)c2)c(=O)oc2cc(OC(=O)N(C)C)c(Cl)cc12 [Compound 1j-1-21-2] strictly below 200 nM?
yes (1)

State whether 200 nM exceeds EC50 recorded for CNS(=O)(=O)Nc1cccc(Cc2c(CF)c3ccc(OC(=O)N(C)C)cc3oc2=O)c1F [Compound 1j-1-4-2F] .
yes (1)

Please determine if CNS(=O)(=O)Nc1cccc(Cc2c(C)c3cc(C)c(OC(=O)N(C)C)cc3oc2=O)c1 [Compound 1j-1-8-2] is below 200 nM in terms of EC50.
no (0)

###

Give measured pEC50 for each item. Keep answers brief.
- Test system: p27 protein
- measurement_notes: Quantification of p27 protein by ELISA (p27 protein-inducing activity, EC50)
- Assay type: cell-based, human
- condition_description: NCI-H460 cells, 48 hours, p27 sandwich ELISA; Table 2
- Protocol: The p27 protein-inducing activities of the compounds or salts listed in Tables 1-1, 1-2 and 2 below were measured as follows. Preparation of Cell Lysate: NCI-H460 human non-small cell lung cancer cells (ATCC HTB-177) were plated in 6-well plates at 2×10^5 cells/well and incubated overnight. […] Quantification by Sandwich ELISA: […]
Give bare numbers, as −log10 of the molar value.

[[record]]
line_notation = "CNS(=O)(=O)Nc1cccc(Cc2c(CF)c3ccc(Oc4ncccn4)cc3oc2=O)c1F"
recorded_result = 6.28


Answer for every listed entry: what is its pEC50? The entries follow.
1. CNS(=O)(=O)Nc1cccc(Cc2c(C)c3ccc(Oc4ncccn4)cc3oc2=O)c1F
2. CNS(=O)(=O)Nc1cccc(Cc2c(C)c3ccc(OC(=O)N(C)C)cc3oc2=O)n1
3. CNS(=O)(=O)Nc1nccc(Cc2c(C)c3ccc(Oc4ncccn4)cc3oc2=O)c1F
4. Cc1c(Cc2cccc(NS(N)(=O)=O)c2F)c(=O)oc2cc(Oc3ncccn3)ccc12

1: 6.14; 2: 5.60; 3: 6.30; 4: 5.74

Value sought for every listed compound: pEC50.
1. CNS(=O)(=O)Nc1cccc(Cc2c(C)c3ccc(Oc4nccs4)cc3oc2=O)c1
2. CNS(=O)(=O)Nc1cccc(Cc2c(C)c3cc(F)c(Oc4ncccn4)cc3oc2=O)c1F
3. CNC(=O)CS(=O)(=O)Nc1cccc(Cc2c(C)c3ccc(Oc4nccs4)cc3oc2=O)c1F

5.15
6.38
5.58

Required: pEC50, one value per compound below.
1. CNS(=O)(=O)Nc1cccc(Cc2c(C)c3cc(C)c(Oc4nccs4)cc3oc2=O)c1
2. CNS(=O)(=O)Nc1cc(Cc2c(C)c3cc(Cl)c(Oc4ncccn4)cc3oc2=O)ccn1

6.27
5.84
